- Tested on: KM20L2 colon
- Assay details: NCI tumour cell line growth inhibition, 48 h
# reported TGI; entries follow
Quantity measured: TGI

* O=C(O)C1CCC(=O)N1C(=O)COc1cc(Cl)c(Cl)cc1Cl (configuration not stated) | > 100 µM
* C[n+]1cn(CC(=O)c2ccccc2)c(C(N)=O)c1N | > 100 µM
* CNC(=O)OCc1nc(SSc2nc(COC(=O)NC)c(COC(=O)NC)n2C)n(C)c1COC(=O)NC | > 100 µM
* CCOC1c2nc3ccccc3nc2-c2ccccc2N1C(C)=O (configuration not stated) | > 100 µM
* CCOC(=O)C[C@@]12CCCN[C@]1(C)CCc1ccccc12 | > 100 µM
* OC1=CN=C(c2ccccc2)Oc2ccccc21 | > 100 µM
* CCc1c(OC(C)=O)c2c(NC3OC(COC(C)=O)C(OC(C)=O)C(OC(C)=O)C3OC(C)=O)nc(SC)nc2oc1=O (configuration not stated) | > 100 µM

* * *

- Tested on: HOP-62 NSCLC
- Assay details: NCI tumour cell line growth inhibition, 48 h; in the data active = GI50 below about 0.43 µM; inactive = the rest
Outcomes: True = active, False = inactive

- O=C1Nc2ccc(-c3cccnc3)cc2/C1=C/c1cc(Br)c(O)c(Br)c1: False
- CCOC(=O)[C@@H](C)C[C@H](Cc1ccccc1)NC(=O)c1csc([C@@H](C[C@H](C(C)C)N(C)C(=O)CNC(=O)[C@H]2CCCCN2C)OC(C)=O)n1: False
- CN(C)CCCOc1ccc(NC2=C(Cl)C(=O)C(Nc3ccc(OCCCN(C)C)cc3)=C(Cl)C2=O)cc1: False
- CCOC(=O)c1cc(C(=O)c2ccc(OC)c(OC)c2)n2c1ccc1ccc3cccnc3c12: False
- O=C(CCCCN1CCN(CCCCC(=O)Nc2ccccc2C#C/C=C\C#Cc2ccccc2C(F)(F)F)CC1)Nc1ccccc1C#C/C=C\C#Cc1ccccc1C(F)(F)F: False
- COC(=O)[C@]12CC[C@@H](C)[C@H](C)[C@@H]1C1=CC[C@@H]3[C@@]4(C)C(C=O)=C[C@@](C)(COS(C)(=O)=O)C4=CC[C@@]3(C)[C@]1(C)CC2: True
- COc1ccc(-c2cnc(-c3ccncc3-c3cccc(OC)c3)o2)cc1: True
- COC(=O)c1ccc(NC(N)=NCCC(C)(C)c2ccc(C(F)(F)F)cc2)nc1: False
- CO[C@H]1C(=O)[C@]2(C)[C@@H](OC)C[C@H]3OC[C@@]3(OC(C)=O)[C@H]2[C@H](OC(=O)c2ccccc2)[C@]2(O)C[C@H](OC(=O)[C@H](O)[C@@H](NC(=O)OC(C)(C)C)c3ccccc3)C(C)=C1C2(C)C: True
- OCc1ccc(-c2ccc(-c3ccc(CO)o3)o2)o1: False

* * *

- System: OVCAR-8 ovarian
- Assay details: NCI tumour cell line growth inhibition, 48 h
Quantity measured: TGI

• CN1C(c2ccccc2)CC(O)CC1c1ccccc1 (centres undefined) = > 100 µM
• O=C(Nc1ccccc1C(=O)NC(=O)c1ccccc1NC(=O)c1ccccc1)c1ccccc1 = 23 µM
• CC1(C)C(=O)/C(=C/c2ccccc2)C(C)(C)C1(C)C = > 100 µM
• COc1ccc2oc(=O)c(-c3cc4c(c(C)n3)c(=O)oc3ccc(OC)cc34)cc2c1 = > 100 µM

* * *

- Test system: 786-0 renal
- Assay details: NCI tumour cell line growth inhibition, 48 h
Quantity measured: log10 of TGI (log10 of the value in µM)

- Cc1ccc(-n2c3nc(=O)n(C)c(=O)c-3nc3ccccc32)c(C)c1: 1.62
- COS(=O)c1cc(Cl)cc(Cl)c1OC(=O)CSSCC(=O)Oc1c(Cl)cc(Cl)cc1S(=O)OC (centres undefined): 1.74
- CO[C@H]1C(=O)[C@]2(C)[C@@H](OC)C[C@H]3OC[C@@]3(OC(C)=O)[C@H]2[C@H](OC(=O)c2ccccc2)[C@]2(O)C[C@H](OC(=O)[C@H](O)[C@@H](NC(=O)OC(C)(C)C)c3ccccc3)C(C)=C1C2(C)C: 1.94
- O=C(Nc1ccccc1C(=O)NC(=O)c1ccccc1NC(=O)c1ccccc1)c1ccccc1: 1.47
- Nc1nc(Cl)c2ncn(Cc3ccc(C45CC6CC(CC(C6)C4)C5)c(OCc4cc(F)c(F)cc4F)c3)c2n1: 0.69
- N#CC(C(=O)Nc1ccccc1)C1=C(Cl)C(=O)c2ccccc2C1=O (centres undefined): 1.44
- CCN(CC)CCCC(Nc1c2ccc(Cl)cc2nc2ccc(OC)cc12)c1ccc(Cl)cc1 (centres undefined): 0.46
- S=C(Sc1ccc(Cl)cc1)Sc1ccc(Cl)cc1: 0.56
- COC(=O)[C@]12CC[C@@H](C)[C@H](C)[C@@H]1C1=CC[C@@H]3[C@@]4(C)C(C=O)=C[C@@](C)(COS(C)(=O)=O)C4=CC[C@@]3(C)[C@]1(C)CC2: -0.38
- CC(C)C(NCc1c2ccccc2[n+](C)c2ccccc12)C(=O)O (centres undefined): 1.19
- CCCC(O)[C@@]1(CC)CC(C)C(O)(C2(C)C[C@H](C)[C@@H](C(CC)C(=O)C(C)[C@@H](O)[C@H](C)C3OC(O)(C(CC)C(=O)O)[C@@H](C)C(O)C3CC)O2)O1 (some centres undefined): 0.71

* * *

# reported TGI; entries follow
- Test system: UACC-257 melanoma
- Assay details: NCI tumour cell line growth inhibition, 48 h
Quantity measured: TGI (µM)

• Cn1c2c(c3c(=O)[nH]ncc31)Cc1ccccc1-2 = 27.1
• O=C(Nc1nc2ccc(S(=O)(=O)Nc3ccc(C4(C(F)(F)F)CC4)cc3)cc2[nH]1)c1cnccn1 = 23.8
• CC(C)C(NCc1c2ccccc2[n+](C)c2ccccc12)C(=O)O (stereo unspecified) = 19.5
• N#Cc1cc(F)cc(Oc2ccc(S(=O)(=O)C(F)F)c3c2CC(F)(F)[C@H]3O)c1 = 79.1

* * *

- System: IGROV1 ovarian
- Assay details: NCI tumour cell line growth inhibition, 48 h
Quantity measured: TGI

- O=C([O-])c1ccc([I+]c2ccccc2)cc1: > 100 µM
- Cc1cccc(C)c1NC(=O)CCCC(=O)C(C#N)c1ccccc1 (stereo not given): > 100 µM
- Cc1nc(C(=Nc2ccc(Br)cc2)Nn2cnnc2)no1: > 100 µM
- CC(=O)Oc1cc2c(cc1OCC(F)(F)F)[C@H]1CC[C@]3(C)[C@@H](OC(C)=O)CC[C@H]3[C@@H]1CC2=O: > 66.8 µM
- Cc1ccc(S(=O)(=O)NC(=O)Nc2ccc(C(=O)O)cc2)cc1: > 100 µM

* * *

- Test system: HS 578T breast
- Assay details: NCI tumour cell line growth inhibition, 48 h
# reported TGI; entries follow
Quantity measured: TGI

* CCOC(=O)c1cn(C)c2c(OC)c3ccccc3c(OC)c2c1=O | 63.8 µM
* COc1ccc(S(=O)(=O)NC(CCC(=O)NC(N)=O)C(=O)NC(N)=O)cc1 (configuration not stated) | > 100 µM
* O=c1c2ccc(Cl)cc2oc2c(CSc3ccccc3)cccc12 | > 100 µM
* O=S(Nc1ccccc1)c1ccc(Cl)cc1 (configuration not stated) | > 100 µM
* CN(C)CCNC(=O)Nc1ccc(N(C)c2ccnc(Nc3ccc(CS(C)(=O)=O)cc3)n2)cc1 | > 25 µM
* Cn1cc(-c2ccc3ncc(-c4ccc(CC(=O)Nc5cc(C(C)(C)C)nn5C)cc4)cc3c2)cn1 | > 20 µM
* CCCCCCCCCCCC1=C(O)C(=O)C(CC2=C(O)C(=O)C(CCCCCCCCCCC)=C(O)C2=O)=C(O)C1=O | > 100 µM
* C[n+]1c2ccccc2n2c3ccccc3c(NCCCn3ccnc3)c(C#N)c21 | 6.78 µM
* COC1=C(OC)C(=O)C(Cc2c(Cl)nc3sccn23)=C(C)C1=O | 50.3 µM
* NC1=NC(c2ccccc2Cl)c2c(n[nH]c2N)N1 (configuration not stated) | > 100 µM
* OCCNc1nc2ccccc2c2[nH]c3ccccc3c12 | 4.57 µM
* O=C1Nc2noc(=O)nc2NO1 | > 200 µM
* Cc1nnc(SCc2nc(C#N)c(C#N)nc2CSc2nnc(C)s2)s1 | > 59.4 µM
* CC1=NC(=N)N=C(C)C1N=Nc1ccc2nc(C)[nH]c2c1 (configuration not stated) | > 100 µM
* CN(C)CCCOc1ccc(NC2=C(Cl)C(=O)C(Nc3ccc(OCCCN(C)C)cc3)=C(Cl)C2=O)cc1 | 4.2 µM
* COC(=O)[C@H](C)NC(=O)[C@H](NS(=O)(=O)c1nc2ccccc2s1)c1ccccc1 | 36.5 µM
* CC(C)=CC1C(C(=O)OCc2cc3c(cc2Cl)OCO3)C1(C)C (configuration not stated) | > 100 µM

* * *

- Test system: TK-10 renal
- Assay details: NCI tumour cell line growth inhibition, 48 h; in the data active = GI50 below about 0.43 µM; inactive = the rest
Outcomes: true (active), false (inactive)

• Cc1ccc2ccc3c4ccccc4ccc3c2c1 = false
• CO[C@H]1C(=O)[C@]2(C)[C@@H](OC)C[C@H]3OC[C@@]3(OC(C)=O)[C@H]2[C@H](OC(=O)c2ccccc2)[C@]2(O)C[C@H](OC(=O)[C@H](O)[C@@H](NC(=O)OC(C)(C)C)c3ccccc3)C(C)=C1C2(C)C = true
• C#COc1cccc(Nc2ncnc3cc(NC(=O)[C@@H](C)Cl)ccc23)c1 = false
• CC(=O)Nc1cccc(C#Cc2cncnc2Nc2ccc(OCc3cccc(F)c3)c(Cl)c2)c1 = false
• N#Cc1cc(F)cc(Oc2ccc(S(=O)(=O)C(F)F)c3c2CC(F)(F)[C@H]3O)c1 = false
• OCC1OC(OC2(CO)OC(CO)C(O)C2O)C(O)C(O)C1O (centres undefined) = false
• O=C1c2ccccc2-c2c1c1ccccc1c(=O)n2CCCNCCNCCCn1c2c(c3ccccc3c1=O)C(=O)c1ccccc1-2 = true
• CN(C)C1C(=O)C(C(N)=O)=C(O)C2(O)C(=O)C3=C(O)c4c(O)cccc4C(C)(O)C3CC12.[Cl][Sb]([Cl])[Cl] (centres undefined) = false
• CN(Cc1cnc2nc(N)nc(N)c2n1)c1ccc(C(=O)NC(CCC(=O)O)C(=O)O)c2ccccc12 (centres undefined) = false
